- assay_details: self-splicing fitness, log relative to wild type (ln ratio); higher = more splicing; Tetrahymena group I intron in knt gene, E. coli kanamycin selection, DiMSum; sequences stand for … in CUCUCU…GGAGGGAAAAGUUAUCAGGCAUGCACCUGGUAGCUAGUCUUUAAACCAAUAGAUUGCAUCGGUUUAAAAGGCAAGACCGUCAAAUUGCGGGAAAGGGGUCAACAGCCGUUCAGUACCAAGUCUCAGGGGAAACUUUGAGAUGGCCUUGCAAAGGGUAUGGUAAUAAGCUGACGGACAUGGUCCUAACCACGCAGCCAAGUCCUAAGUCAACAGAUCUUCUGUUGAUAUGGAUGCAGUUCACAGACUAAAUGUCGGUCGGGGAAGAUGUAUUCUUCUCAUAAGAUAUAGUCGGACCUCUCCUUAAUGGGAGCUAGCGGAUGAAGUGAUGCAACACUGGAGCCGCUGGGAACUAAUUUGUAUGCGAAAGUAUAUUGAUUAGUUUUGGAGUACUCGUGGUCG;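 further: selection with 25 µg/mL kanamycin versus none on LB agar overnight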
- details: 30 °C
reported_metric: self-splicing fitness (ln)

INSERT INTO measurements (sequence_record, observed_result) VALUES
  ('CGCCAGCAAUAUUACGGUAG', -2.51),
  ('UGUCAGCAAUAUUACGGAUA', -1.37),
  ('CAUGAGCAAUAUUACGCUGU', -3.14);

-- ask # query: self-splicing fitness (ln) of entry AUGAAGCAAUAUUACGGCUG
-- reply 0.352

-- ask What value of self-splicing fitness (ln) has been reported for the following sequence? UUUUAGCAAUAUUACGCGCC
-- reply -1.71

-- ask Request the reported self-splicing fitness (ln) associated with UUGCAGCAAUAUUACGAAGC
-- reply -2.28
